Each entry below carries its reported T/C.
# System: L1210 leukemia ip in BDF1 mice, survival T/C
# test-name: NCI In Vivo Anticancer Drug Screen. Data for tumor model L1210 Leukemia (intraperitoneal) in B6D2F1 (BDF1) mice
# assay-conditions: endpoint: mean survival time; dose: 400.0 mg/kg/injection; schedule: Q04DX002 (ip); vehicle: Klucel (hydroxypropylcellulose) (HPC); higher = longer survival
Toxic doses and inconclusive results are not listed.

Known T/C results, listed for orientation:
compound | T/C
Cc1ccc(C(O)c2cnc(C)n2Cc2ccccc2)cc1 (configuration not stated) | 88 % of control
CCOC(=O)C1OC1(C)C (configuration not stated) | 95 % of control
Cc1ccccc1NC(=O)Nc1ccc(S(N)(=O)=O)cc1 | 86 % of control

Next, consider the following compound.
Request: Specify the recorded T/C for Cc1cc(Cl)ccc1OC(=O)Nc1cccc2ccccc12 , system: L1210 leukemia ip in BDF1 mice, survival T/C.
Result: 104 % of control

----------
# Tested on: L1210 leukemia ip in BDF1 mice, survival T/C
# test-name: NCI In Vivo Anticancer Drug Screen. Data for tumor model L1210 Leukemia (intraperitoneal) in B6D2F1 (BDF1) mice
# assay-conditions: endpoint: mean survival time; dose: 200.0 mg/kg/injection; schedule: Q01DX001 (ip); vehicle: carboxymethylcellulose (CMC); higher = longer survival
Toxic doses and inconclusive results are not listed.
Each entry below carries its reported T/C.

compound | system-tested | measured-value
Cc1nc(N)nc(N)c1-c1ccccc1 | L1210 leukemia ip in BDF1 mice, survival T/C | 94 % of control

Request: Specify the recorded T/C for NC(CSSCC(N)C(=O)O)C(=O)O (stereo unspecified) , system: L1210 leukemia ip in BDF1 mice, survival T/C.
Result: 94 % of control

Request: Specify the recorded T/C for O=C1c2ccc(Br)cc2-c2cc(Br)c([N+](=O)[O-])cc21 , system: L1210 leukemia ip in BDF1 mice, survival T/C.
Result: 98 % of control

Request: Specify the recorded T/C for N#CCc1ccc(C(=O)O)cc1 , system: L1210 leukemia ip in BDF1 mice, survival T/C.
Result: 92 % of control

Request: Specify the recorded T/C for O=C1CCc2cc(Cl)ccc2O1 , system: L1210 leukemia ip in BDF1 mice, survival T/C.
Result: 103 % of control

Request: Specify the recorded T/C for CC(=O)CCc1ccccc1 , system: L1210 leukemia ip in BDF1 mice, survival T/C.
Result: 103 % of control

Request: Specify the recorded T/C for O=c1[nH]c2c(Cl)cccc2c2ccccc12 , system: L1210 leukemia ip in BDF1 mice, survival T/C.
Result: 107 % of control

Request: Specify the recorded T/C for C=CCOc1cc(C)ccc1C , system: L1210 leukemia ip in BDF1 mice, survival T/C.
Result: 95 % of control

Request: Specify the recorded T/C for CN(C)c1ccc(N=Nc2cc(Cl)cc(Cl)c2)cc1 , system: L1210 leukemia ip in BDF1 mice, survival T/C.
Result: 91 % of control

Request: Specify the recorded T/C for Cc1ccc(Br)c([N+](=O)[O-])c1 , system: L1210 leukemia ip in BDF1 mice, survival T/C.
Result: 115 % of control

Request: Specify the recorded T/C for O=C1c2cccc(S(=O)(=O)O)c2C(=O)c2c1cccc2S(=O)(=O)O , system: L1210 leukemia ip in BDF1 mice, survival T/C.
Result: 109 % of control

Request: Specify the recorded T/C for Cc1ccc(N=Nc2ccc([N+](=O)[O-])cc2)c([N+](=O)[O-])c1 , system: L1210 leukemia ip in BDF1 mice, survival T/C.
Result: 93 % of control

Request: Specify the recorded T/C for COC(=O)c1cc(C)cc(N(c2ccccc2[N+](=O)[O-])S(=O)(=O)c2ccc(C)cc2)c1C , system: L1210 leukemia ip in BDF1 mice, survival T/C.
Result: 104 % of control

Request: Specify the recorded T/C for CC(=O)OC1CC2CC(C1)C(C#N)C(=O)NC(=O)C2C#N (stereo unspecified) , system: L1210 leukemia ip in BDF1 mice, survival T/C.
Result: 96 % of control

----------
# Test system: L1210 leukemia ip in BDF1 mice, survival T/C
# test-name: NCI In Vivo Anticancer Drug Screen. Data for tumor model L1210 Leukemia (intraperitoneal) in B6D2F1 (BDF1) mice
# assay-conditions: endpoint: mean survival time; dose: 200.0 mg/kg/injection; schedule: Q04DX002 (ip); vehicle: saline; higher = longer survival
Inconclusive results and toxic doses are left out.
Each entry below carries its reported T/C.

Known T/C results, listed for orientation:
compound | T/C
CCN(CC)CCNCC(Cc1ccccc1)c1ccccc1 (centres undefined) | 105 % of control
C=CCOC(=O)C(C)(O)C(Cl)c1ccccc1 (centres undefined) | 100 % of control

Request: Determine from records and report T/C for CCOC(=O)CC(CC(=O)OCC)C(=O)OCC
Result: 96 % of control

Request: Determine from records and report T/C for O=C(O)C1CCC1(C(=O)O)C(=O)O (centres undefined)
Result: 90 % of control

----------
# Test system: L1210 leukemia ip in BDF1 mice, survival T/C
# test-name: NCI In Vivo Anticancer Drug Screen. Data for tumor model L1210 Leukemia (intraperitoneal) in B6D2F1 (BDF1) mice
# assay-conditions: endpoint: mean survival time; dose: 400.0 mg/kg/injection; schedule: Q01DX001 (ip); vehicle: saline with Tween-80; higher = longer survival
Inconclusive results and toxic doses are left out.
observation-type: T/C

Known T/C results, listed for orientation:
compound | measured-value
O=C1C(=O)N2c3ccccc3CCc3cccc1c32 | 97 % of control
CCOC(=O)C1(CCCBr)CCCCC1=O (stereo not given) | 104 % of control
FC(F)(F)Cc1cccc(C(F)(F)F)c1 | 105 % of control

Request: Determine from records and report T/C for O=C(c1ccccc1[N+](=O)[O-])C(Br)C(Br)c1cccc2ccccc12 (stereo not given)
Result: 100 % of control

Request: Determine from records and report T/C for CC(=O)NC1C(OC(C)=O)OC(COC(C)=O)C(OC(C)=O)C1OC(C)=O (stereo not given)
Result: 103 % of control

Request: Determine from records and report T/C for CCOC(=O)C(NC=O)(C(=O)OCC)C(C)c1c[nH]c2ccccc12 (stereo not given)
Result: 100 % of control

Request: Determine from records and report T/C for O=C1CC(c2ccccc2)C2(c3ccccc3)OC12 (stereo not given)
Result: 111 % of control

Request: Determine from records and report T/C for BrCOCCCCOCBr
Result: 107 % of control

Request: Determine from records and report T/C for COC(=S)Nc1cccc(OC(=O)NC(C)C)c1
Result: 100 % of control

Request: Determine from records and report T/C for O=C(c1ccccc1)c1ccc2c3c(cccc13)C(=O)c1ccccc1-2
Result: 88 % of control

----------
# Test system: L1210 leukemia ip in BDF1 mice, survival T/C
# test-name: NCI In Vivo Anticancer Drug Screen. Data for tumor model L1210 Leukemia (intraperitoneal) in B6D2F1 (BDF1) mice
# assay-conditions: endpoint: mean survival time; dose: 200.0 mg/kg/injection; schedule: Q01DX001 (ip); vehicle: other; higher = longer survival
Toxic doses and inconclusive results are not listed.
Each entry below carries its reported T/C.

Request: Specify the recorded T/C for OC(CNc1ccccc1)CN1CCOCC1 (stereo not given) , system: L1210 leukemia ip in BDF1 mice, survival T/C.
Result: 96 % of control

----------
# Tested on: L1210 leukemia ip in BDF1 mice, survival T/C
# test-name: NCI In Vivo Anticancer Drug Screen. Data for tumor model L1210 Leukemia (intraperitoneal) in B6D2F1 (BDF1) mice
# assay-conditions: endpoint: mean survival time; dose: 10.0 mg/kg/injection; schedule: Q01DX001 (ip); vehicle: saline; higher = longer survival
Inconclusive results and toxic doses are left out.
Each entry below carries its reported T/C.

compound | T/C
C=CC1OC2OC(C)(C)OC2C1O (stereo not drawn) | 98 % of control
CC1(CCCOc2ccc(N)cc2)N=C(N)N=C(N)N1c1ccccc1 (stereo not drawn) | 96 % of control

Request: Determine from records and report T/C for COc1cc(C[N+]23CC[N+](Cc4cc(OC)cc(OC)c4)(CC2)C3)cc(OC)c1
Result: 100 % of control

Request: Determine from records and report T/C for CC(=O)Nc1ccc(-c2cnc3ccccc3c2)cc1
Result: 106 % of control

Request: Determine from records and report T/C for CC[N+](C)(C)CCC#N
Result: 95 % of control

----------
# Test system: L1210 leukemia ip in BDF1 mice, survival T/C
# test-name: NCI In Vivo Anticancer Drug Screen. Data for tumor model L1210 Leukemia (intraperitoneal) in B6D2F1 (BDF1) mice
# assay-conditions: endpoint: mean survival time; dose: 200.0 mg/kg/injection; schedule: Q04DX003 (ip); vehicle: saline; higher = longer survival
Inconclusive results and toxic doses are left out.
observation-type: T/C

molecule | T/C
COC1OC2COC(c3ccccc3)OC2C(NC(C)=O)C1OC(C)=O (centres undefined) | 97 % of control
O=C(CCCO)N/N=C\c1ccc([N+](=O)[O-])s1 | 93 % of control
O=C(NCc1ccccc1)c1ccc(Cl)cc1 | 97 % of control

Request: Determine from records and report T/C for COc1cc(N)c2nccc(N(C)C)c2c1
Result: 103 % of control

Request: Determine from records and report T/C for C=C[C@@](C)(O)CC/C=C(/C)CCC=C(C)C
Result: 96 % of control

Request: Determine from records and report T/C for O=C(NNc1ccccc1)c1ccccc1
Result: 103 % of control

Request: Determine from records and report T/C for COCCCn1nnc2ccccc2c1=O
Result: 93 % of control

Request: Determine from records and report T/C for [Cl][Tl]
Result: 90 % of control

Request: Determine from records and report T/C for CCNc1nnnn1CC
Result: 98 % of control

Request: Determine from records and report T/C for [NH-]C(CCC(N)=O)C(=O)O.[NH-]C(CCC(N)=O)C(=O)O.[Pd+2] (centres undefined)
Result: 92 % of control

Request: Determine from records and report T/C for O=C1CCCN1
Result: 97 % of control
